system: CAKI-1 renal; experiment: NCI tumour cell line growth inhibition, 48 h; in the data active = GI50 below about 0.43 µM; inactive = the rest
API: response.call in true = active, false = inactive

// known answers, use as guide
COMPOUND | SYSTEM TESTED | ANSWER LABEL
N#CC1=C(N)Oc2c(ccc3ccccc23)C1c1ccccc1Cl (centres undefined) | CAKI-1 renal | true
CC1SC(c2cccc(Oc3ccccc3)c2)N(CCc2cccs2)C1=O (centres undefined) | CAKI-1 renal | false
CC(=O)OC1C(OC/C2=C/C3[C@@H](C(C)C)CC=C(C)[C@@H]3CC(OC(=O)/C=C/c3cn(C)cn3)[C@]3(C)C=C[C@@]2(O)O3)OCC(O)C1O (some centres undefined) | CAKI-1 renal | true

Now look at this one.
Q) Name the outcome recorded for O=C(/C=C/CN1CCCCC1)Nc1cc2c(Nc3ccc(F)c(Cl)c3F)ncnc2cc1OCCOC(F)F in the assay.
A) true
